These entries and their values trace back to PubChem BioAssay (EPA / NIEHS).

# Assay Protocol: TOX21_p53_BLA_p4_viability: Viability Assessment in the Tox21 HCT-116 p53 Agonism Beta-lactamase Assay, Phase 4 (AID 2283597);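 further: hits lower the luminescence signal meaning cytotoxicity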
Records with an inconclusive call do not appear. Active and inactive are the calls of the source. How the source made its calls: active means hit-call score of the fitted dose curve at least 0.9, where 1 is the maximum; inconclusive means response in the unintended direction; inactive means score below 0.9.
Use one of these outcomes when replying: active, inactive

Use these answered entries as a reference point.
COc1ccc(-c2ccccc2)cc1NNC(=O)OC(C)C
inactive
CC(C)C1(C)N=C(c2ncccc2C(=O)O)NC1=O (stereo unspecified)
inactive
CCN(CC)c1nc(C)cc(OP(=S)(OC)OC)n1
inactive
CCCCOCN(C(=O)CCl)c1c(CC)cccc1CC
active

Query block: Recorded test call requested for CCCN(CC)CC1COC2(CCC(C(C)(C)C)CC2)O1 (stereo unspecified)
Result block: inactive

Query block: Recorded test call requested for `CS(=O)(=O)c1ccc(C(=O)C2C(=O)CCCC2=O)c([N+](=O)[O-])c1`
Result block: inactive

Query block: Recorded test call requested for CCCCC(C#N)(Cn1cncn1)c1ccc(Cl)cc1 (stereo unspecified)
Result block: inactive

Query block: Recorded test call requested for `CN/C(=N\[N+](=O)[O-])NCc1cnc(Cl)s1`
Result block: inactive

Query block: Recorded test call requested for `CCOP(=O)(OCC)Oc1nc(Cl)c(Cl)cc1Cl`
Result block: inactive

Query block: Recorded test call requested for `Clc1nc(Cl)nc(Nc2ccccc2Cl)n1`
Result block: inactive

Query block: Recorded test call requested for `Cc1cc(C)nc(Nc2ccccc2)n1`
Result block: inactive

Query block: Recorded test call requested for CCOC(=O)C(C)OC(=O)c1cc(Oc2ccc(C(F)(F)F)cc2Cl)ccc1[N+](=O)[O-] (stereo unspecified)
Result block: inactive
